Entries and their pEC50 values follow.
- study.target: T1, mouse DLL4 expressed on CHO cells (mouse, UniProt Q9JI71 27-686)
- T1 construct: whole, on cells; also called mDLL4; CHO-mDLL4
- T1 sequence (Q9JI71 27-686): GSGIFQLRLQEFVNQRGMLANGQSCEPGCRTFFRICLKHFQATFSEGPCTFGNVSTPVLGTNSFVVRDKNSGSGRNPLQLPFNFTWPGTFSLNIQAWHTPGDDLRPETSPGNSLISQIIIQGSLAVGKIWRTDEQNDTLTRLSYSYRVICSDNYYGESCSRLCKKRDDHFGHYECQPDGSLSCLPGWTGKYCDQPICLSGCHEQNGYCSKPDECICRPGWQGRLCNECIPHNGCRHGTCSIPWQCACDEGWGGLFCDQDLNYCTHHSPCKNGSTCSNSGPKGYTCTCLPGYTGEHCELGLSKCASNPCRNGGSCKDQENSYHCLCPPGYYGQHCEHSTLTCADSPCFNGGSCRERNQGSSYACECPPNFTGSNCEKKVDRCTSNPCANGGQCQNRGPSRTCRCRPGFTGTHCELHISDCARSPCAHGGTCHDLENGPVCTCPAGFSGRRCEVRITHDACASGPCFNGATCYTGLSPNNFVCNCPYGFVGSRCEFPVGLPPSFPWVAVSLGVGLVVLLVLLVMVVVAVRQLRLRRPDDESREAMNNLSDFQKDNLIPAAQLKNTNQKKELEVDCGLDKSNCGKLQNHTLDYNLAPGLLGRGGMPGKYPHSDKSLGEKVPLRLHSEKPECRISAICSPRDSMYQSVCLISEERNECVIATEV
- test.method.notes: FACS; summary table, column taken as mDLL4
Reminder that pEC50 means the negative base-10 logarithm of the concentration expressed in mol/L.

binder | pEC50
DLLBII129E11 (VHH, not shown: small tags and cut ends) VHH: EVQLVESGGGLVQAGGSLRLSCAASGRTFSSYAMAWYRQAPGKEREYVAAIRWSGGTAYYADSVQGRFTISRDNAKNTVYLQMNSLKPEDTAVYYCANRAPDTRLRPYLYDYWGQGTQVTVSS | 8.39

# next binder below
Query :: Any idea what pEC50 was measured for DLLBII133A09 (VHH, not shown: small tags and cut ends) VHH: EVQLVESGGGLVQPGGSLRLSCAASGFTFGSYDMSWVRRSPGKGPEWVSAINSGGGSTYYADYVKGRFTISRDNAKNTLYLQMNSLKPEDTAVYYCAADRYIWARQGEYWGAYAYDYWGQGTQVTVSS ?
Result :: 8.77
